# Test system: Caco-2 cell monolayer
# assayNotes: Transepithelial electrical resistance
# Assay type: cell-based, human
# conditionParameters: 1-25 μM, 10 days, vs control

compound	TEER (J10), direction of effect
O=C(NC(=O)c1c(F)cccc1F)Nc1cc(Cl)c(F)c(Cl)c1F	net decrease
COP(=S)(OC)Oc1ccc([N+](=O)[O-])c(C)c1	net decrease
CC1(C)[C@H](C(=O)O[C@H](C#N)c2cccc(Oc3ccccc3)c2)[C@@H]1/C=C(\Cl)C(F)(F)F (racemic)	significant increase
CC1(C)[C@H](C(=O)O[C@H](C#N)c2cccc(Oc3ccccc3)c2)[C@@H]1C=C(Br)Br	significant increase
